As shown below, each of these compounds has a reported IC50 value.
# system_under_test: human P2X3 receptor (Homo sapiens (Human), UniProt P56373)
# Sequence (P56373 whole entry): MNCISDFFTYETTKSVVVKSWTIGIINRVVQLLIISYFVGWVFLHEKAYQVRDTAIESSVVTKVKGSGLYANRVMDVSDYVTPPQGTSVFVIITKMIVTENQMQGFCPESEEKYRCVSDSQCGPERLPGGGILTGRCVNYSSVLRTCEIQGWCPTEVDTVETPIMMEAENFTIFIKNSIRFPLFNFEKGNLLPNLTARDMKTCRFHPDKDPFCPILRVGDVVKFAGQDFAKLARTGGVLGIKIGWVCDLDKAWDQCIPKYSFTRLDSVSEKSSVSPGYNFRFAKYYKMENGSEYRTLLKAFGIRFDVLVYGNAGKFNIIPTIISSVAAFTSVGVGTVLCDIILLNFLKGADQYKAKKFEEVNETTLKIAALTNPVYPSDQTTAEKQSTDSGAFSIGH
# method_description: Evaluation of human P2X3 receptor inhibitory activity (Fluo-3 calcium fluorescence, FDSS 3000, ATP stimulation)
# Assay type: cell-based
# stated_conditions: C6BU-1 cells stably expressing human P2X3 receptor, Fluo-3 fluorescence, FDSS 3000
metric: IC50 (nM)

structure_notation | metric | readout_units | observed_measurement
Cc1ccc(Cn2c(=O)n(CCC(=O)O)c(=O)[nH]/c2=N\c2ccc(OC(C)C)c(C)c2)cc1 | IC50 | nM | 63
CCOC(=O)CCn1c(=O)[nH]/c(=N\c2ccc(OC(C)C)c(F)c2)n(CC2CCC(F)(F)CC2)c1=O | IC50 | nM | 296
COC(=O)[C@@H](C)Cn1c(=O)[nH]/c(=N\c2ccc(OC3CCOCC3)cc2)n(Cc2ccc(C)cc2)c1=O | IC50 | nM | 92
CNC(=O)c1cc(Oc2ccc(/N=c3\[nH]c(=O)n(CCO)c(=O)n3Cc3ccc(Cl)cc3)cc2)ccn1 | IC50 | nM | 3

----------
# system_under_test: human P2X3 receptor (Homo sapiens (Human), UniProt P56373)
# method_description: Evaluation of human P2X3 receptor inhibitory activity (Fluo-3 calcium fluorescence, FDSS 3000, ATP stimulation);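 note: stimulus was 50 nM ATP with fluorescence followed for 3 min, and the response per well was peak post-ATP fluorescence divided by the reading at measurement start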
# Format: cell-based
# stated_conditions: human P2X3 receptor, Test Example 1
pIC50: −log10 of the molar value.
// label = t if pIC50 is not less than 8, otherwise f

molecule | class
CCn1c(=O)[nH]/c(=N\c2ccc(Oc3nc(C(=O)O)cs3)cc2)n(Cc2ccc(F)cc2)c1=O | f
Cc1cc(/N=c2\[nH]c(=O)n(C[C@H](C)C(=O)O)c(=O)n2Cc2ccc(Br)cc2)ccc1OC(C)C | f
CCn1c(=O)[nH]/c(=N\c2ccc(Oc3cnc(C#N)nc3)cc2)n(Cc2ccc(Cl)cc2)c1=O | t
Cc1nsc(Oc2ccc(/N=c3\[nH]c(=O)n(CC(CO)CO)c(=O)n3Cc3ccc(Cl)cc3)cc2)n1 | t
O=c1[nH]/c(=N\c2ccc(Oc3ccn[nH]3)cc2)n(Cc2ccc(Cl)cc2)c(=O)n1CCCO | f
COC(=O)c1cncc(Oc2ccc(/N=c3\[nH]c(=O)n(C4COC4)c(=O)n3Cc3ccc(Cl)cc3)cc2)c1 | f
C[C@H](C(=O)O)n1c(=O)[nH]/c(=N\c2ccc(Oc3ccon3)cc2)n(Cc2ccc(Cl)cc2)c1=O | f
CCOC(=O)CCn1c(=O)[nH]/c(=N\c2ccc(Oc3ccc(OC)nc3)cc2)n(Cc2ccc(Cl)cc2)c1=O | t
CCOC(=O)Cn1c(=O)[nH]/c(=N\c2ccc(Oc3ncns3)cc2)n(Cc2ccc(Cl)cc2)c1=O | t
O=C(O)CCn1c(=O)[nH]/c(=N\c2ccc(Oc3ccc(O)nc3)cc2)n(Cc2ccc(Cl)cc2)c1=O | f
CCn1c(=O)[nH]/c(=N\c2ccc(Oc3ccc(C#N)nc3)cc2)n(Cc2ccc(Cl)cn2)c1=O | f
Cc1ccc(Cn2c(=O)n(C[C@H](C)C(=O)O)c(=O)[nH]/c2=N\c2ccc(OCC(F)F)cc2)cc1 | f
CCn1c(=O)[nH]/c(=N\c2ccc(Oc3ccnc(C(=O)NC)c3)c(OC)c2)n(Cc2ccc(Cl)cc2)c1=O | t
Cc1ccc(Cn2c(=O)n(C[C@H](C)C(=O)O)c(=O)[nH]/c2=N\c2ccc(CC(C)C)cc2)cc1 | f
CCn1c(=O)[nH]/c(=N\c2ccc([S+]([O-])c3ccc(C(=O)O)cc3)cc2)n(Cc2ccc(Cl)cc2)c1=O (stereo not shown) | f
Cc1ccc(Cn2c(=O)n(C[C@H](C)C(=O)O)c(=O)[nH]/c2=N\c2cc(Cl)cc(Cl)c2)cc1 | f
CCOC(=O)CCn1c(=O)[nH]/c(=N\c2ccc3nc(CC)sc3c2)n(Cc2ccc(Cl)cc2)c1=O | t
CCn1c(=O)nc(Nc2ccc(Oc3ccc(C(=O)O)nn3)cc2)n(Cc2ccc(F)cc2)c1=O | f
CSc1n/c(=N\c2ccc(OC(C)C)cc2)n(Cc2ccc(Cl)cc2)c(=O)n1C(C)C | f
